system: TK-10; experiment: NCI tumour cell line growth inhibition, 48 h
Calls of active or inactive are those of the source. No stated cut-off is given here; in the data, active = GI50 up to about 1.1 µM and inactive = higher.
# Lookup of reported GI50 keyed by entry
assay.endpoint: GI50

                                    compound  assay_endpoint               result
 0  O=C(/C=c1\oc(=O)/c(=C/C(=O)c2ccc(Cl)cc2)oc1=O)c1ccc(Cl)cc1            GI50  > 100 µM (inactive)
 1              Cc1n[nH]c(=O)n1/N=C\c1ccccc1            GI50  > 100 µM (inactive)
 2  CC/C(=C/OC)P1(=O)OC(C)(C)CN1C(C)(C)C (configuration not stated)            GI50  > 100 µM (inactive)
 3  COC(=O)C(C(=O)C(=O)Nc1c(Cl)cc([N+](=O)[O-])cc1Cl)c1nc2cc(C)c(C)cc2nc1O (configuration not stated)            GI50  > 100 µM (inactive)
 4  COc1ccc2cc(/C=N\NC(=O)Nc3cccc4ccccc34)ccc2c1            GI50     22 µM (inactive)
 5  Cc1ccc(Nc2nc(C)c(C(=O)CC(=O)C(=O)Nc3ccc(Cl)cc3)s2)cc1            GI50  > 100 µM (inactive)
 6        O=c1cc(N2CCOCC2)n2c(ccc3ccccc32)n1            GI50  > 100 µM (inactive)
 7  COc1cc(C2NCCC(c3ccccc3)(c3ccccc3)N2)cc(OC)c1OC (configuration not stated)            GI50   9.31 µM (inactive)
 8  C=C(CN(C)C)C1(c2ccccc2)CC2(CCCC2)C(=O)O1 (configuration not stated)            GI50  > 100 µM (inactive)
 9  CC(C)(C)C1=CC(C)(n2[nH]c(=O)n(-c3ccccc3)c2=O)C=C(C(C)(C)C)C1=O            GI50  > 100 µM (inactive)
10                        OCc1ccccc1C1CSCSC1            GI50  > 100 µM (inactive)
11  C=C(C)C(=O)O[C@H]1[C@H]2[C@H](OC(=O)[C@H]2C)[C@H](O)[C@@H](C)[C@@H]2C=CC(=O)[C@]21C            GI50   2.82 µM (inactive)
12              CC(C)(C)C#CI1OC(=O)c2ccccc21            GI50   3.86 µM (inactive)
13               CO/C(N)=C(C#N)/N=C/c1cccnc1            GI50  > 100 µM (inactive)
14  Nc1nc(Nc2ccccc2)sc1C(=O)c1c[nH]c2ccccc12            GI50   3.09 µM (inactive)
15  CC(O)C1(CNc2cc(Cl)nc(N)n2)CCCC1 (configuration not stated)            GI50  > 100 µM (inactive)
16  CC(C)OP(=O)(OC(C)C)c1ccc2c(c1)OCCOCCOCCOCCO2            GI50  > 100 µM (inactive)
17  CC(=O)OC1[C@H]2c3cc4c(cc3CN3CCC(=C[C@@H]1O)C23)OCO4 (some centres not stated)            GI50  > 100 µM (inactive)
18  Cc1ccc(C2NC(=O)c3ccccc3N2)s1 (configuration not stated)            GI50  > 100 µM (inactive)
19  O=C(COc1ccc(Cl)cc1)N1N=C(c2ccc([N+](=O)[O-])o2)CC1(O)c1ccccc1 (configuration not stated)            GI50   8.63 µM (inactive)
20  COc1ccc(C(C)c2cc3c(cc2OC)OCO3)cc1 (configuration not stated)            GI50   8.95 µM (inactive)
21  N#CCC(=O)N/N=C1/C(=O)N(c2ccc(Cl)cc2)C(=O)C(=O)C1c1nc2ccccc2s1 (configuration not stated)            GI50  > 100 µM (inactive)

src = ChEMBL document CHEMBL1201862
